Assay: Oral bioavailability in rat
Type: ADME, organism-based
Conditions: in vivo
property: bioavailability (%)

{"columns": ["compound", "bioavailability, %"],
 "data": [
  ["CC(C)C(NC(=O)OCc1nccs1)C(=O)N[C@@H](Cc1ccccc1)[C@@H](O)C[C@H](Cc1ccccc1)NC(=O)OCc1cccnc1 (stereo partly drawn)", 35]
]}

[a] CC(C)c1nc(CN(C)C(=O)NC(C(=O)N[C@@H](Cc2ccccc2)C[C@H](O)[C@H](Cc2ccccc2)NC(=O)OCc2cnco2)C(C)C)co1 (stereo partly drawn)
[b] Cc1cccc(COC(=O)NC(C(=O)N[C@@H](Cc2ccccc2)[C@@H](O)C[C@H](Cc2ccccc2)NC(=O)OCc2ccoc2)C(C)C)n1 (stereo partly drawn)
Exercise: Which record would sort first by descending bioavailability, a or b ? Write down the label attached to your selection.
Solution: a

###

Test: in vivo
Conditions: rat, plasma, po
property: AUC (ng·h/mL)

{"columns": ["molecule", "unit-annotation", "AUC"],
 "data": [
  ["COCc1ncc(COC(=O)NC(C(=O)N[C@@H](Cc2ccccc2)C[C@H](O)[C@H](Cc2ccccc2)NC(=O)OCc2cccnc2)C(C)C)s1 (some centres undefined)", "ng·h/mL", 20],
  ["CC(C)C(NC(=O)OCc1ccccn1)C(=O)N[C@@H](Cc1ccccc1)[C@@H](O)C[C@H](Cc1ccccc1)NC(=O)OCc1cccnc1 (some centres undefined)", "ng·h/mL", 1980],
  ["COCc1ncc(COC(=O)NC(C(=O)N[C@@H](Cc2ccccc2)[C@@H](O)C[C@H](Cc2ccccc2)NC(=O)OCc2cccnc2)C(C)C)s1 (some centres undefined)", "ng·h/mL", 420]
]}

[A] COc1ccc(CN(C)C(=O)NC(C(=O)N[C@@H](Cc2ccccc2)[C@@H](O)C[C@H](Cc2ccccc2)NC(=O)OCc2cccnc2)C(C)C)cn1 (some centres undefined)
[B] Cc1cccc(COC(=O)NC(C(=O)N[C@@H](Cc2ccccc2)C[C@H](O)[C@H](Cc2ccccc2)NC(=O)OCc2cccnc2)C(C)C)n1 (some centres undefined)
Exercise: Smaller AUC value? Options are A and B Write down the label attached to your selection.
Solution: A
(A: 310 ng·h/mL, B: 900 ng·h/mL)

[P] COc1ccc(COC(=O)NC(C(=O)N[C@@H](Cc2ccccc2)[C@@H](O)C[C@H](Cc2ccccc2)NC(=O)OCc2cccnc2)C(C)C)nc1 (some centres undefined)
[Q] COc1ccc(COC(=O)NC(C(=O)N[C@@H](Cc2ccccc2)C[C@H](O)[C@H](Cc2ccccc2)NC(=O)OCc2cccnc2)C(C)C)cn1 (some centres undefined)
Exercise: Smaller AUC value? Options are P and Q Write down the label attached to your selection.
Solution: Q
(Q: 30 ng·h/mL, P: 380 ng·h/mL)

###

Experiment: in vivo
Details: rat, plasma, po
property: AUC (ng·h/mL)

{"columns": ["compound", "AUC / ng·h/mL"],
 "data": [
  ["CC(C)c1nc(CN(C)C(=O)NC(C(=O)N[C@@H](Cc2ccccc2)C[C@H](O)[C@H](Cc2ccccc2)NC(=O)OCc2cncs2)C(C)C)cs1 (stereo partly specified)", 7750],
  ["CC(C)C(NC(=O)OCc1ccccn1)C(=O)N[C@@H](Cc1ccccc1)[C@@H](O)C[C@H](Cc1ccccc1)NC(=O)OCc1cncs1 (stereo partly specified)", 1490]
]}

[A] Cc1nc(CN(C)C(=O)NC(C(=O)N[C@@H](Cc2ccccc2)[C@@H](O)C[C@H](Cc2ccccc2)NC(=O)OCc2cccnc2)C(C)C)cs1 (stereo partly specified)
[B] CC(C)c1nc(CN(C)C(=O)NC(C(=O)N[C@@H](Cc2ccccc2)C[C@H](O)[C@H](Cc2ccccc2)NC(=O)OCc2ccno2)C(C)C)cs1 (stereo partly specified)
[C] CC(C)C(NC(=O)N(C)Cc1cscn1)C(=O)N[C@@H](Cc1ccccc1)[C@@H](O)C[C@H](Cc1ccccc1)NC(=O)OCc1cccnc1 (stereo partly specified)
[D] CC(C)c1nc(CCC(=O)NC(C(=O)N[C@@H](Cc2ccccc2)[C@@H](O)C[C@H](Cc2ccccc2)NC(=O)OCc2cccnc2)C(C)C)cs1 (stereo partly specified)
Exercise: Task field, ranking: reported AUC, descending order. In your reply, arrange the labels in the requested order.
Solution: C, A, D, B

###

Assay: in vivo
Conditions: rat, plasma, po
property: AUC (ng·h/mL)

{"columns": ["molecule", "AUC, ng·h/mL"],
 "data": [
  ["CC(C)c1nc(CCC(=O)NC(C(=O)N[C@@H](Cc2ccccc2)C[C@H](O)[C@H](Cc2ccccc2)NC(=O)OCc2cccnc2)C(C)C)cs1 (stereo not given in full)", 170],
  ["CC(C)c1nc(CN(C(=O)NCCC(=O)N[C@@H](Cc2ccccc2)[C@@H](O)C[C@H](Cc2ccccc2)NC(=O)OCc2cncs2)C2CC2)cs1", 400],
  ["CC(C)C(NC(=O)N(C)Cc1ccccn1)C(=O)N[C@@H](Cc1ccccc1)[C@@H](O)C[C@H](Cc1ccccc1)NC(=O)OCc1cncnc1 (stereo not given in full)", 870],
  ["CC(C)C(NC(=O)N(C)Cc1csc(C2CC2)n1)C(=O)N[C@@H](Cc1ccccc1)C[C@H](O)[C@H](Cc1ccccc1)NC(=O)OCc1cncs1 (stereo not given in full)", 21900],
  ["CC(C)c1nc(COC(=O)NC(C(=O)N[C@@H](Cc2ccccc2)C[C@H](O)[C@H](Cc2ccccc2)NC(=O)OCc2cccnc2)C(C)C)co1 (stereo not given in full)", 200],
  ["COCc1nc(COC(=O)NC(C(=O)N[C@@H](Cc2ccccc2)[C@@H](O)C[C@H](Cc2ccccc2)NC(=O)OCc2cccnc2)C(C)C)cs1 (stereo not given in full)", 630]
]}

[A] Cc1cnc(COC(=O)NC(C(=O)N[C@@H](Cc2ccccc2)C[C@H](O)[C@H](Cc2ccccc2)NC(=O)OCc2cccnc2)C(C)C)cn1 (stereo not given in full)
[B] CC(C)c1ncc(COC(=O)NC(C(=O)N[C@@H](Cc2ccccc2)C[C@H](O)[C@H](Cc2ccccc2)NC(=O)OCc2cccnc2)C(C)C)s1 (stereo not given in full)
[C] Cc1ccc(CN(C)C(=O)NC(C(=O)N[C@@H](Cc2ccccc2)C[C@H](O)[C@H](Cc2ccccc2)NC(=O)OCc2cccnc2)C(C)C)cn1 (stereo not given in full)
[D] CCc1nc(CN(C)C(=O)NC(C(=O)N[C@@H](Cc2ccccc2)[C@@H](O)C[C@H](Cc2ccccc2)NC(=O)OCc2cncs2)C(C)C)cs1 (stereo not given in full)
[E] CC(NC(=O)OCc1csc(C(C)C)n1)C(=O)N[C@@H](Cc1ccccc1)C[C@H](O)[C@H](Cc1ccccc1)NC(=O)OCc1cncs1 (stereo not given in full)
Exercise: Task field, ranking: reported AUC, descending order. In your reply, arrange the labels in the requested order.
Solution: D, E, A, C, B

###

Assay: in vivo
Details: rat, plasma, iv
property: half-life (min)

[1] CC(C)C(NC(=O)N(C)Cc1ccccn1)C(=O)N[C@@H](Cc1ccccc1)[C@@H](O)C[C@H](Cc1ccccc1)NC(=O)OCc1ccoc1 (stereo partly drawn)
[2] CC(C)c1nc(COC(=O)NC(C(=O)N[C@@H](Cc2ccccc2)[C@@H](O)C[C@H](Cc2ccccc2)NC(=O)OCc2cccnc2)C(C)C)cs1 (stereo partly drawn)
[3] Cc1ncc(CN(C)C(=O)NC(C(=O)N[C@@H](Cc2ccccc2)[C@@H](O)C[C@H](Cc2ccccc2)NC(=O)OCc2cccnc2)C(C)C)nc1C (stereo partly drawn)
Exercise: Your job: order these 3 records by half-life, ascending. In your reply, arrange the labels in the requested order.
Solution: 3, 2, 1

###

Assay: in vivo
Conditions: rat, plasma, iv
property: half-life (min)

Here's what some known entries look like.
{"columns": ["molecule", "data-value"],
 "data": [
  ["CC(C)c1nc(CN(C)C(=O)NC(C(=O)N[C@@H](Cc2ccccc2)C[C@H](O)[C@H](Cc2ccccc2)NC(=O)OCc2cccnc2)C(C)C)co1 (some centres undefined)", 13.2],
  ["Cc1cncc(COC(=O)NC(C(=O)N[C@@H](Cc2ccccc2)[C@@H](O)C[C@H](Cc2ccccc2)NC(=O)OCc2cccnc2)C(C)C)c1 (some centres undefined)", 16.8],
  ["CC(C)C(NC(=O)N(C)Cc1csc(C(C)(C)C)n1)C(=O)N[C@@H](Cc1ccccc1)[C@@H](O)C[C@H](Cc1ccccc1)NC(=O)OCc1cccnc1 (some centres undefined)", 21.6],
  ["COc1cncc(COC(=O)NC(C(=O)N[C@@H](Cc2ccccc2)C[C@H](O)[C@H](Cc2ccccc2)NC(=O)OCc2cccnc2)C(C)C)c1 (some centres undefined)", 48],
  ["CC(C)c1ncc(COC(=O)NC(C(=O)N[C@@H](Cc2ccccc2)C[C@H](O)[C@H](Cc2ccccc2)NC(=O)OCc2cccnc2)C(C)C)s1 (some centres undefined)", 27.6],
  ["CC(C)C(NC(=O)OCc1cncc(N)c1)C(=O)N[C@@H](Cc1ccccc1)[C@@H](O)C[C@H](Cc1ccccc1)NC(=O)OCc1cccnc1 (some centres undefined)", 43.2],
  ["Cc1ccc(CN(C)C(=O)NC(C(=O)N[C@@H](Cc2ccccc2)C[C@H](O)[C@H](Cc2ccccc2)NC(=O)OCc2cccnc2)C(C)C)cn1 (some centres undefined)", 21],
  ["Cc1ncc(COC(=O)N[C@@H](Cc2ccccc2)C[C@H](O)[C@H](Cc2ccccc2)NC(=O)C(NC(=O)N(C)Cc2csc(C(C)C)n2)C(C)C)s1 (some centres undefined)", 27.6]
]}

[1] CC(C)c1nc(CN(C)C(=O)NC(C(=O)N[C@@H](Cc2ccccc2)[C@@H](O)C[C@H](Cc2ccccc2)NC(=O)OCc2cccnc2)C(C)C)co1 (some centres undefined)
[2] CCc1nc(COC(=O)NC(C(=O)N[C@@H](Cc2ccccc2)[C@@H](O)C[C@H](Cc2ccccc2)NC(=O)OCc2cccnc2)C(C)C)cs1 (some centres undefined)
Exercise: Which record would sort first by descending half-life, 1 or 2 ? Write down the label attached to your selection.
Solution: 2
(2: 29.4 min, 1: 17.4 min)
